System: alpha 4 beta 7-positive cells
Protocol: Intraperitoneal Delayed Type Hypersensitivity (IP-DTH) Response
Format: in vivo, mice
Applied conditions: Mus musculus, sc, 48 h, 30 mg/kg sc bid × 2; peritoneal cells 48 h after antigen challenge; read-out: % Decrease in recruited α4β7 + cells
Experimental: Intraperitoneal Delayed Type Hypersensitivity (IP-DTH) Response. A Method for Analyzing Effects of Integrin Antagonists In Vivo […] The sample of 1×10e6 cells was stained with fluorochrome-coupled antibody to alpha 4 beta 7 integrin or a primary antibody to alpha 4 beta 7 integrin followed by a secondary fluorochrome-coupled antibody. […] The cells were then transferred to test tubes and maintained at 4° C. until analyzed by flow cytometry to determine numbers of alpha4 beta7-postive cells. […]
Value type: inhibition in vivo at 30 mg/kg (%)
Dear colleague, please return just the value in %, with no unit written.

Request: What measured inhibition in vivo at 30 mg/kg goes with Cn1ncc(N)c(-c2ccc(C[C@H](NC(=O)c3c(Cl)cccc3Cl)C(=O)O)cc2)c1=O ?
Response: 56.6

Request: Repeat for the following compound: O=C(N[C@@H](Cc1ccc(-c2c(OCc3cccnc3)cnn(CCO)c2=O)cc1)C(=O)O)c1c(Cl)cccc1Cl
Response: 37.4

Request: Quick one: O=C(N[C@@H](Cc1ccc(-c2c(OCC3CC3)cnn(CCO)c2=O)cc1)C(=O)O)c1c(Cl)cccc1Cl
Response: 49.8

Request: And what about the compound O=C(N[C@@H](Cc1ccc(-c2c(N3CCOCC3)cnn(CCO)c2=O)cc1)C(=O)O)c1c(Cl)cccc1Cl ?
Response: 37.4
